- Assay Explanation: gradient 5% acetonitrile 3 min, to 50% in 2 min, to 85% in 15 min, held 3 min, 100 µL/min
- Setup Conditions: column: Zorbax Extend-C18 2.1 x 50 mm; eluents: water / acetonitrile, 0.1% formic acid
The label true is reserved for RP-LC retention time strictly under 800 s; false covers values equal to or above it.

Check out these entries, answers already filled in.
# Molecule, Category Label
data = [
    ("O=C(NCCN1CCOCC1)C1CCN(c2ccc3nnc(-c4ccccc4Cl)n3n2)CC1", "true"),
    ("CCc1nccn1Cc1noc(-c2cccc(OC)c2)n1", "true"),
]

Prompt: Item "CCc1noc([C@@H]2CC(F)(F)CN2C(=O)Cn2cc(C)cn2)n1" : RP-LC retention time beneath 800 s, strictly?
Completion: true

Prompt: In plain terms, does "Cc1cccc(N2CCN(Cc3nc(-c4ccc(N5CCOCC5)nc4)no3)CC2)c1C" come in under 800 s for RP-LC retention time?
Completion: false

Prompt: # TODO verify RP-LC retention time < 800 s strictly for this molecule: "CCOc1ccccc1-c1nc(-c2ccc3oc(CC)nc3c2)no1"
Completion: false

Prompt: Field: below-cutoff. Rule: recorded RP-LC retention time strictly less than 800 s. Subject: "CS(=O)(=O)N1CCCc2cc(C(=O)Nc3ccccc3Br)ccc21"
Completion: false

Prompt: Hello, is RP-LC retention time of the following molecule strictly smaller than 800 s? "CCn1c(=O)c2ccn(CC(=O)NCc3cccnc3)c2n(CC)c1=O"
Completion: true

Prompt: Is the reported RP-LC retention time for Cc1ccc(/C=C/c2onc(C)c2S(=O)(=O)N2CCC(C(=O)NCC3CCCO3)CC2)cc1 (configuration not stated) strictly below 800 s?
Completion: false

Prompt: Does the reported RP-LC retention time of "O=S(=O)(NC1CCCCCC1)c1ccc2c(c1)-c1oncc1CO2" stay below 800 s?
Completion: false

Prompt: Answer whether the molecule Cc1ccc(C2NC(=O)N(CC(=O)Nc3cc(C)on3)C3=C2C(=O)OC3)cc1 (configuration not stated) has RP-LC retention time strictly less than 800 s
Completion: true

Prompt: For "Cc1cc(=O)n(CC(=O)Nc2ccccc2)c(N2CCc3ccccc3C2)n1" , is the recorded RP-LC retention time below the cut-off of 800 s?
Completion: true

* * *

- Assay Explanation: gradient 5% acetonitrile 3 min, to 50% in 2 min, to 85% in 15 min, held 3 min, 100 µL/min
- Setup Conditions: column: Zorbax Extend-C18 2.1 x 50 mm; eluents: water / acetonitrile, 0.1% formic acid
Kindly return criterion met if reported RP-LC retention time is no lower than 800 s; return criterion not met if it is lower.

Would you please look over these solved cases?
# Compound, Category Label
rows = [
    ("O=C(CSc1cc(-n2ccc(C(=O)NC3CC3)n2)ncn1)Nc1ccc2c(c1)OCO2", "criterion not met"),
    ("COc1ccc(-c2nc(-c3ccc4c(c3)ncn4CCN3CCOCC3)no2)c(C)c1", "criterion not met"),
    ("Cc1ccc(NC(=O)CC2COc3ccccc3NC2=O)cc1C (configuration not stated)", "criterion not met"),
    ("O=C(Cn1nc2n(c1=O)CCCC2)Nc1ccccc1", "criterion not met"),
    ("O=S(=O)(Nc1cccn2c(C3CCC3)nnc12)c1cccc2cccnc12", "criterion not met"),
]

Prompt: Is reported RP-LC retention time greater than or equal to 800 s here: "COc1ccc(C2(C(=O)N3CCn4c(C)nnc4C3)CC2)cc1"
Completion: criterion not met

Prompt: Hello, I need to know if "Cc1cc(NC(=O)C2CCN(C(=O)c3cc(-c4ccco4)on3)CC2)no1" has measured RP-LC retention time not below 800 s. Thanks!
Completion: criterion not met

Prompt: State whether the measured RP-LC retention time reaches 800 s, counting equality as reaching it, for "COc1cccc(C(=O)N2CCN(c3nc4ccccc4n(C)c3=O)CC2)c1"
Completion: criterion met

Prompt: Confirm if RP-LC retention time reported for the compound COc1ccc(-c2noc(C3CC(=O)N(c4ccc(F)cc4)C3)n2)c(OC)c1 (configuration not stated) is 800 s or above.
Completion: criterion met

Prompt: Answer whether RP-LC retention time of "O=C(CCc1c(-c2ccc(Cl)cc2)nc2ccccn12)NCc1ccco1" is greater than or equal to 800 s.
Completion: criterion not met

Prompt: Hi team, for "COc1ccc(Cc2nn3c(CSc4ccccc4)nnc3s2)cc1OC" , is the recorded RP-LC retention time at or above 800 s?
Completion: criterion met

Prompt: Quick check, RP-LC retention time >= 800 s? "CN1C(=O)COc2ccc(-c3csc(NC(=O)CCC4CCCCC4)n3)cc21"
Completion: criterion met

Prompt: Is it the case that "CCN1C(=O)c2cc(S(=O)(=O)Nc3ccc(Cl)cc3F)ccc2Oc2cccnc21" has RP-LC retention time reaching or exceeding 800 s?
Completion: criterion met

Prompt: Quick check, RP-LC retention time >= 800 s? "O=C(CNC(=O)C1CCCCC1)Nc1nc2ccccc2[nH]1"
Completion: criterion not met

Prompt: Decide: is the reported value of RP-LC retention time for "O=C(O)c1cn(-c2cccc(F)c2)nn1" equal to or greater than 800 s?
Completion: criterion not met

Prompt: Would you say "O=C(CCS(=O)(=O)c1ccccc1)NCCOc1ccc(-c2ccc(F)cc2)nn1" shows RP-LC retention time at minimum 800 s?
Completion: criterion not met

Hey, just so you know, these numbers are from the METLIN SMRT retention time set (Domingo-Almenara et al. 2019).
